# testedOn: Recombinant human Bcl-xL with a 25 amino acid truncation of its C-terminus (human) (UniProt Q07817)
# Sequence (Q07817 1-208): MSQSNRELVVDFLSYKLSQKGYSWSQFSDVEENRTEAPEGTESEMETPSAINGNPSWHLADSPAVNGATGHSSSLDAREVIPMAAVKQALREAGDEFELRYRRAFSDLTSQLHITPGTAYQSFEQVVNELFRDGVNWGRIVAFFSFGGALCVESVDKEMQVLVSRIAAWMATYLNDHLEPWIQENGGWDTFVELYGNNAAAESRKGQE
# assay: competition phage ELISA
pIC50: −log10 of the molar value.
We use 8 as the dividing line for pIC50: on or above the line is Satisfied, below is Not satisfied.

binder	categoryLabel
QEDIIRNIAAHLAQVGDSMDRSIPPG [Bid BH3 R10A, phage-displayed]	Not satisfied
PSSTMGQVGRQLAIIGDDINRRADSE [Bak BH3 Y23A, phage-displayed]	Not satisfied
QEDIARNIARHLAQVGDSMDRSIPPG [Bid BH3 I5A, phage-displayed]	Not satisfied
PSSTMGQVGAQLAIIGDDINRRYDSE [Bak BH3 R10A, phage-displayed]	Not satisfied
NLWAAQRYGRELRRMSDEFVDSFAKG [Bad BH3 K24A, phage-displayed]	Satisfied
PSSTMGQVGRQLAIIGDDINARYDSE [Bak BH3 R21A, phage-displayed]	Not satisfied
NLWAAARYGRELRRMSDEFVDSFKKG [Bad BH3 Q6A, phage-displayed]	Satisfied
PSSTMGQVGRQLAIIGDDIARRYDSE [Bak BH3 N20A, phage-displayed]	Not satisfied
NLWAAQRYGRELRRMSDEFVDSAKKG [Bad BH3 F23A, phage-displayed]	Satisfied
PSSTMGAVGRQLAIIGDDINRRYDSE [Bak BH3 Q7A, phage-displayed]	Not satisfied
NLWAAQRYGRELRRMSDEFVDAFKKG [Bad BH3 S22A, phage-displayed]	Satisfied
NLWAAQRYGRELARMSDEFVDSFKKG [Bad BH3 R13A, phage-displayed]	Satisfied
QEDIIANIARHLAQVGDSMDRSIPPG [Bid BH3 R6A, phage-displayed]	Not satisfied
NLWAAQRYGAELRRMSDEFVDSFKKG [Bad BH3 R10A, phage-displayed]	Satisfied
